Target: hTRPV3 (Homo sapiens, UniProt Q8NET8)
Construct: expressed in transfected cells; host or cells: HEK-293
Sequence (Q8NET8 1-790): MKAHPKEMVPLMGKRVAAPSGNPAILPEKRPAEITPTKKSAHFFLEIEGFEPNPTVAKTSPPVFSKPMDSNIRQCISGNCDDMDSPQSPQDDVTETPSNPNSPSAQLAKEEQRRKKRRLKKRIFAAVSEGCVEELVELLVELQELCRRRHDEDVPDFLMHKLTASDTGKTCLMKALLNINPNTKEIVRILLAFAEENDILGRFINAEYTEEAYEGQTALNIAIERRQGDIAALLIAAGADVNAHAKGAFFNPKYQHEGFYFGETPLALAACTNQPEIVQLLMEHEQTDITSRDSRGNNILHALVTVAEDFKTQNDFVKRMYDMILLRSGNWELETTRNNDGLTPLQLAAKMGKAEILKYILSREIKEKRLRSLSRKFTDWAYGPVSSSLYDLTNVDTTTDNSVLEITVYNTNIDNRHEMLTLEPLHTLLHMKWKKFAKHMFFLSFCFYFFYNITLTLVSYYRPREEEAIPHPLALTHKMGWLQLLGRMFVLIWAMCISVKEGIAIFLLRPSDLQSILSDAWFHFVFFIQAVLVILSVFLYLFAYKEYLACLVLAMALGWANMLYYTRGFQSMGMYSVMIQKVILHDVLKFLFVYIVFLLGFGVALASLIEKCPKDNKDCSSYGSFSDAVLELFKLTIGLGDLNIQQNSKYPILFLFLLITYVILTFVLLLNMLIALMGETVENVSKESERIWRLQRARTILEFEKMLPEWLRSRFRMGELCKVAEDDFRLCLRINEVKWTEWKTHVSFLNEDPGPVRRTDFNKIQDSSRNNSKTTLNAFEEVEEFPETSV
Experiment: Whole cell patch clamp inhibition rate test on HEK-293 cells instantaneously expressing TRPV3
Format: cell-based
Conditions: HEK293; hTRPV3, single concentration 0.3 μM
Measured inhibition at 0.3 µM, listed per entry for reference.

Previously resolved entries follow.
> print(dat)
                                   compound       value
1  O=C(c1ccc(F)cn1)N1CCC2(C1)OB(O)c1ccccc12 (centres unmarked) [Example 8]       < 25%
2  O=C(c1ccc(F)cn1)N1CCC2(CC(O)c3cc(-c4ccc(F)cc4C4CC4)ccc32)C1 (centres unmarked) [Example 163]  70 to 100%
3  CC(C)c1ccccc1-c1ccc2c(c1)C1(CCN(C(=O)c3ccc(F)cn3)C1)CC2O (centres unmarked) [Example 103]       < 25%
4  CC(C)c1ccccc1-c1ccc2c(c1)C(O)CC21CCN(C(=O)c2csc(Cl)n2)C1 (centres unmarked) [Example 18]  70 to 100%
5  O=C(c1ccc(F)cn1)N1CCC2(CC(O)c3cc(-c4ccccc4Cl)ccc32)C1 (centres unmarked) [Example 81]   50 to 70%
6  Cc1ncccc1-c1ccc2c(c1)C(O)CC21CCN(C(=O)c2ccc(F)cn2)C1 (centres unmarked) [Example 91]       < 25%
7  CC(C)c1ccccc1-c1ccc2c(c1)[C@@H](O)C[C@@]21CCN(C(=O)c2cccc(C3CC3)n2)C1 [Example 43]       < 25%

Next compound, inhibition at 0.3 µM to be filled in.
input: Could you share which inhibition at 0.3 µM value was measured for O=C(c1csc(Cl)n1)N1CCC2(CC(O)c3cc(-c4ccccc4C4CC4)ccc32)C1 (centres unmarked) [Example 17] ?
output: 70 to 100%

----------
Recorded inhibition at 0.3 µM, one value per entry.
Target: hTRPV3 (Homo sapiens, UniProt Q8NET8)
Construct: expressed in transfected cells; host or cells: HEK-293
Assay: Whole cell patch clamp inhibition rate test on HEK-293 cells instantaneously expressing TRPV3
Format: cell-based
Details: HEK293; hTRPV3, single concentration 0.3 μM

Example cases with answers are listed next.
> print(dat)
                                    compound        endpoint.label       value
 1  O=C(c1cccc(C2CC2)n1)N1CC[C@@]2(C[C@H](O)c3cc(-c4ccccc4C4CC4)ccc32)C1  inhibition at 0.3 µM       < 25%
 2  CC(C)c1ccccc1-c1ccc2c(c1)C(O)CC21CCN(C(=O)c2ccc(F)cn2)CC1 (stereo not shown)  inhibition at 0.3 µM   25 to 50%
 3  COC(=O)C1CC2(CCN(C(=O)c3ccc(F)cn3)C2)c2ccc(-c3ccccc3C(C)C)cc21 (stereo not shown)  inhibition at 0.3 µM       < 25%
 4  CC(C)c1ccccc1-c1ccc2c(c1)C(O)CC21CCN(C(=O)c2cccc(C3CC3)n2)C1 (stereo not shown)  inhibition at 0.3 µM  70 to 100%
 5  CC(C)c1ccccc1-c1ccc2c(c1)[C@H](O)C[C@@]21CCN(C(=O)c2csc(Cl)n2)C1  inhibition at 0.3 µM  70 to 100%
 6  O=C(c1cccc(Cl)n1)N1CCC2(CC(O)c3cc(-c4ccccc4C4CC4)ccc32)C1 (stereo not shown)  inhibition at 0.3 µM  70 to 100%
 7  CC(C)c1ccccc1-c1ccc2c(c1)C(O)CC21CCN(C(=O)c2ccn3nccc3n2)C1 (stereo not shown)  inhibition at 0.3 µM   50 to 70%
 8  CC(=O)c1cc(F)ccc1-c1ccc2c(c1)C(O)CC21CCN(C(=O)c2ccc(F)cn2)C1 (stereo not shown)  inhibition at 0.3 µM  70 to 100%
 9  CC(C)c1ccccc1-c1ccc2c(c1)C(O)CC21CCN(C(F)(F)c2ccc(F)cn2)C1 (stereo not shown)  inhibition at 0.3 µM       < 25%
10  CC(C)c1ccccc1-c1ccc2c(c1)C(O)CC21CCN(C(=O)c2ccc3cn[nH]c3n2)C1 (stereo not shown)  inhibition at 0.3 µM   25 to 50%

input: Give inhibition at 0.3 µM (hTRPV3 (Homo sapiens, UniProt Q8NET8)) of the following compound: CC(C)(O)c1ccccc1-c1ccc2c(c1)C(O)CC21CCN(C(=O)c2ccc(F)cn2)C1 (stereo not shown)
output: 25 to 50%

input: # value lookup — system hTRPV3 (Homo sapiens, UniProt Q8NET8), readout inhibition at 0.3 µM, item CC(C)c1ccccc1-c1ccc2c(c1)C(O)CC21CCN(S(=O)(=O)c2ccc(Cl)cn2)C1 (stereo not shown)
output: < 25%

input: Form field: inhibition at 0.3 µM recorded for COCc1cnc(C(=O)N2CCC3(CC(O)c4cc(-c5ccccc5C(C)C)ccc43)C2)cn1 (stereo not shown) with hTRPV3 (Homo sapiens, UniProt Q8NET8) (enter value)
output: < 25%

input: Query inhibition at 0.3 µM on hTRPV3 (Homo sapiens, UniProt Q8NET8) for CCOc1ccccc1-c1ccc2c(c1)C(O)CC21CCN(C(=O)c2ccc(F)cn2)C1 (stereo not shown)
output: 50 to 70%

input: Lab request: please report inhibition at 0.3 µM under test system hTRPV3 (Homo sapiens, UniProt Q8NET8) for CC(C)c1ccccc1-c1ccc2c(c1)C(O)CC21CC(=O)N(Cc2ccc(F)cn2)C1 (stereo not shown)
output: < 25%

input: # returns recorded inhibition at 0.3 µM (system: hTRPV3 (Homo sapiens, UniProt Q8NET8)) for CC(C)(C)c1ccccc1-c1ccc2c(c1)C(O)CC21CCN(C(=O)c2ccc(F)cn2)C1 (stereo not shown)
output: 70 to 100%

----------
Biological target: hTRPV3 (Homo sapiens, UniProt Q8NET8)
Construct: expressed in transfected cells; host or cells: HEK-293
Sequence (Q8NET8 1-790): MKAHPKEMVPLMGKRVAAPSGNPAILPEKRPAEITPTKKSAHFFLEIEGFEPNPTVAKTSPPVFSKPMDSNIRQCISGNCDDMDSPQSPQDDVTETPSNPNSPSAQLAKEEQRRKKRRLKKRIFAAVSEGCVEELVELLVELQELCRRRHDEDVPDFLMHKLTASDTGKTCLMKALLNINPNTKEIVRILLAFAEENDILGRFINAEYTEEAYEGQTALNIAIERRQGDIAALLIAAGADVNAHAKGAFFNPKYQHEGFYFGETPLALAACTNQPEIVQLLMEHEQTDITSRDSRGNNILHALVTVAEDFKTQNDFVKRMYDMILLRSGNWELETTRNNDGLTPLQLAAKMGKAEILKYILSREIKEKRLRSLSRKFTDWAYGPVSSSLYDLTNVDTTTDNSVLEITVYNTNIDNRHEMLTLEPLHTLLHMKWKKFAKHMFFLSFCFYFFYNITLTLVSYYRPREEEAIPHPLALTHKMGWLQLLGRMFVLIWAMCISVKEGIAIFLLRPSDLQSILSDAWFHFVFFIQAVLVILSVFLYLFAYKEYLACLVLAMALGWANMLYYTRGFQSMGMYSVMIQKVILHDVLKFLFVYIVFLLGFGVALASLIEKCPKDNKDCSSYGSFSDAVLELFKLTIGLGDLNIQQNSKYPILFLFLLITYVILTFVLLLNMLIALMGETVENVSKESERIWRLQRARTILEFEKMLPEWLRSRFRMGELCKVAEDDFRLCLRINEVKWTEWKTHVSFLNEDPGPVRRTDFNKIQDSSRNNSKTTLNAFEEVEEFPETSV
Assay: Whole cell patch clamp inhibition rate test on HEK-293 cells instantaneously expressing TRPV3
Type: cell-based
Conditions: HEK293; hTRPV3, single concentration 0.3 μM
endpoint.label: inhibition at 0.3 µM

See these solved cases before continuing.
> print(dat)
                                   compound                          system.tested       value
1  CC1(O)CC2(CCN(C(=O)c3ccc(F)cn3)C2)c2ccc(-c3ccccc3C3CC3)cc21 (stereo not shown)  hTRPV3 (Homo sapiens, UniProt Q8NET8)       < 25%
2  O=C(c1csc(Cl)n1)N1CC[C@@]2(C[C@@H](O)c3cc(-c4ccccc4C4CC4)ccc32)C1  hTRPV3 (Homo sapiens, UniProt Q8NET8)  70 to 100%
3  O=C(c1ccc(F)cn1)N1CCC2(CC(O)c3cc(-c4cccc5ccccc45)ccc32)C1 (stereo not shown)  hTRPV3 (Homo sapiens, UniProt Q8NET8)  70 to 100%

Next:
input: Request the reported inhibition at 0.3 µM associated with O=C(c1ccc(F)c(Cl)n1)N1CCC2(CC(O)c3cc(-c4ccccc4C4CC4)ccc32)C1 (stereo not shown)
output: 70 to 100%
